target.under.test: T1, rat Y2 receptor (rat, UniProt Q9ERC0)
T1 sequence: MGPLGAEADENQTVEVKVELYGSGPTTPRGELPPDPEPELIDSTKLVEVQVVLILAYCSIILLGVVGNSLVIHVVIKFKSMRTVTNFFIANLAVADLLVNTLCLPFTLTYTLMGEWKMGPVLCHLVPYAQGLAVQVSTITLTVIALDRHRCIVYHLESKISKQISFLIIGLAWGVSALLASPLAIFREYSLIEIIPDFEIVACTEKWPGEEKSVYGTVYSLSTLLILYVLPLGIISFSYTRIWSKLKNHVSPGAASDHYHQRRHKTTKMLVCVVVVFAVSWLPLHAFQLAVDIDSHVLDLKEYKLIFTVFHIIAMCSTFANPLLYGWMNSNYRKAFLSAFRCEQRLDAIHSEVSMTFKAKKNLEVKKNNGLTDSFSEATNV
procedure.text: 125I-PYY displacement, COS-7 membranes
pKi: −log10 of the molar value. Ends that are not written are not given here.
result.type: pKi

I. PAEDLARYYSALRHYINLITRQRY (ends and bridges not checked) [porcine NPY13-36]
II. SALRHYINLITRQRY (ends and bridges not checked) [porcine NPY22-36]
Higher pKi between I and II ? Give the label of your selection.
I

FYI, the data here is from patent US20020103123A1.
